# experimental.target: Alpha-1A adrenergic receptor (Homo sapiens, UniProt P35348)
# Sequence (P35348 whole entry): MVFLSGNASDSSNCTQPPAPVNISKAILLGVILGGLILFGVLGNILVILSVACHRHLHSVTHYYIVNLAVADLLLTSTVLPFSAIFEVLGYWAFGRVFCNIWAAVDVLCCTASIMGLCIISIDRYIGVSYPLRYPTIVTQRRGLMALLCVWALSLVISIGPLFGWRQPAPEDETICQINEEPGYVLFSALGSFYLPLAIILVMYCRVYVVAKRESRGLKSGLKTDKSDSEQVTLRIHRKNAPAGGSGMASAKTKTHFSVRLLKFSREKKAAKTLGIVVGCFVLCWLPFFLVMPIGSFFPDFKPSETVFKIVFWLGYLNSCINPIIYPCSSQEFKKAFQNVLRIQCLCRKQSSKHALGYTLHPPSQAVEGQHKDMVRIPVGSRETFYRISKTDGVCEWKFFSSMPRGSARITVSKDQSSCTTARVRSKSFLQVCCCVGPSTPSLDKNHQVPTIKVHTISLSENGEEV
For each of the compounds below, state its pKi.
Notebook: values listed as pKi are -log10 of the concentration (mol/L).

Q: Look up and state reported pKi for Cc1c(NC2=NCCN2)ccc2nccnc12
A: 5.83

Q: Look up and state reported pKi for Ic1c(NC2=NCCN2)ccc2nccnc12
A: 6.01

Q: Look up and state reported pKi for Brc1c(NC2=NCCS2)ccc2nccnc12
A: 4.67

Q: Look up and state reported pKi for Brc1c(NC2=NCCO2)ccc2nccnc12
A: 4.04

Q: Look up and state reported pKi for Brc1c(NC2=N[C@@H]3CCCC[C@@H]3N2)ccc2nccnc12
A: 4.85

Q: Look up and state reported pKi for c1cnc2cc(NC3=NCCN3)ccc2n1
A: 4.74

Q: Look up and state reported pKi for Clc1c(NC2=NCCN2)ccc2nccnc12
A: 5.29
